Biological target: MMP-1 (Homo sapiens)
Sequence (P03956 100-469): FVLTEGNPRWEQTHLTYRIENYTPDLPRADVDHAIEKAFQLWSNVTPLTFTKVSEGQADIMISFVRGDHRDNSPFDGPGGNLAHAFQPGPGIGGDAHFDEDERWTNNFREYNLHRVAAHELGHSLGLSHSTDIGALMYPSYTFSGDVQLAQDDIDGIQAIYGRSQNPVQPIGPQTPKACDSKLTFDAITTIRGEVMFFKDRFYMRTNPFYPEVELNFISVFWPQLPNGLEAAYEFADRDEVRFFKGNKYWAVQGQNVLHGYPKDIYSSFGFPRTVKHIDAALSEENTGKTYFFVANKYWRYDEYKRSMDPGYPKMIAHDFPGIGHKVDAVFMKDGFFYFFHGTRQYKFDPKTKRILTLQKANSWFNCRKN
Experiment: MMP-1 inhibition (thiopeptide or fluorescent peptide substrate)
Format: biochemical
Settings: read-out: MMP-1 IC50
Where a name gives a salt, the structure may show the parent alone.
measurement-type: pIC50
pIC50 here: minus log base 10 of the concentration, concentration in moles per litre.

CC#CCOc1ccc(S(=O)(=O)N2CCN(C(=O)CN)CC2C(=O)NO)cc1 (stereo not drawn) [Example 230]    5.07

// next item, pIC50 requested
Note to self: pIC50 recorded for CC#CCOc1ccc(S(=O)(=O)N2CCN(C)CC2C(=O)NO)cc1 (stereo not drawn) [Example 56, Hydrochloride] was 5.48
